Value source: the nanobody polyreactivity screen of Harvey et al. (2022)

- Protocol: yeast display, Sf9 membrane polyspecificity reagent, FACS + sequencing; frameworks hold sequencing errors
Parameter: polyreactivity (PSR sort gate)

1. QVQLVESGGGLVQAGGSLRLSCAASGFTFYKNTMGWYRPEPGKERELVAAISSSGSSTYYADSVKGRFRISRDNAKNTVYLLMNSLKPEDTAVYYCAAGRFAYHDDYWGQGTQVTVSS
high polyreactivity
2. QVQLVESGGGLVQAGGSLRLSCAASGFTFGGNDMGWYSQAPGKERELVAAIRSSGDTTYYADSVKGRFTISRDNAKNTVYLQMNSLKPEDTAVSYCAAYSHHQFSRSEYYYWGKGTQVTVSS
low polyreactivity
3. QVQLVESGGGLVQAGGSLRLSCAASGFTFGTYAMGWYRQAPGKERELVAAINGNGGSTYYADSVKGRFTISRDNAKNTVYLQMNSLKPEDTAVYYCAAARRSGSTRRDYWGQGTQVTVSS
high polyreactivity
4. QVQLVESGGGLVQAGGSLRLSCDASGRTFKYYAMGWYRQAPGKERELVAVITSGGSTYYADSVKGRFTISRDNAKNTVYLQMNSLKPEDTAVYYCAKSSHAREYYYWGQGTQVTVSS
low polyreactivity
5. QVQLVESGGGLVQAGGSLRLSCAASGNTFHPYAMGWYRQAPGKERELVAAITKSGGSTYYADSVKGRFTISRDNAKNTVYLQMNSLKPEDTAFYYCAAESYIEYYLKYDYWGQGSQVTVSS
low polyreactivity
6. QVHLVESGGGLVQAGGSLRLSCAASGFTLYYYMGWYRQAPGKERELVAGISNSGSTSYADSVKGRFTISRDNAKNTVYLQMNSLKPEDTAVYYCNAYYPAWYLDRYYYWGQGTQVTVSS
high polyreactivity
7. QVQLVESGGGLVQAGGSLRLSCAASGLILNYYTMGWYRQAPGKERELVATISSSTGSTYYADSVKGRFTISRDNAKNTVYLQMNSLKPEDTAVYYCAADHWSYWQIYDYWGQGTQVTVSS
low polyreactivity
8. QVQLVDSGAGLVQAGGSLRLSCDASGSTFRGYAMGWYRQSPWKERELVAAITYISDSTYYADSVKGRFTISRDNAKNTVFLQMISLNPEDTAVYYCNAYYDGDWRYTSQVTGDLWGQGTQVTVSS
low polyreactivity
9. QVQLVESGGGLVQAGGSLRLSCAASGIILPRYAMGWYRQAPGKERELVAAISRGGGTYYADSVKGRFTISRDNAKNTVYLQMNSLIPEDTAVYYCAAAYVFVGSSHYYWGQGTQVTVSS
high polyreactivity
10. QVQLVESGGGLVQAGGSLRLSCAASGSIFSRNTLGWYRQAPGKERELVAAITRGGSTDYADSVKGRFTISRDNAKNTVYLQMNSLKPEDTAVYYCAKKTPGWGKFDYWGQGTQVTVSS
low polyreactivity
11. QVQLVESGGCLVHAGGSLRLSCAAYGSILKYNAIGWYIQAPGKERELVAAITSRGGSTYYADSVKGRFTISRDNAKNTVYLQMNSLKPEDTAVYYCNRVYLGYFRYDYWGQGTQVTVSS
high polyreactivity
12. QVQLVESGGGLVQAGGSLRLSCAASGLTFVRYAMGWYRQAPGKERELVAAISARGGSTYYADSVKGRFTISRDNAKNTVYLQMNSLKPEDTAVYYCNTVRVHGFPIDRIYDYWGQGTQVTVSS
high polyreactivity
13. QVQLQESGGGLVQAGGSLRLSCAASGSIFADVQMGWYRQAPGKERELVASINFRGTTTYNADSVKGRITISRDNSKNTVYLQMSSLKPEDTAVYYCSVGRSEGGDYAYWGQGTHVTVSS
low polyreactivity
14. QVQLVESAGGLVQAVGSLRLSCDASGSTFSGNDMGWYRQAPGKERELVAAITSSGGSTYYADSVKGRFTISRDNAKNTVYLQMNSLKPEDTAVYYCAAKSRRTRRSYYWGQGTQVTVSS
high polyreactivity
15. QVQLVESGGGLVQAGGSLRLSCAASGFTFYWYAMGWYRQAPGKERELVAAISRGGSTNYADSVKGRFTISRDNAKNTVYLQMNSLKPEDTAVYYCARDNPYRWFYRYVGEGDYWGQGTQVTVSS
low polyreactivity
16. QVQLVESGGGLVQAGGSLRLSCAASGSIFSINARGWYRQAPGKERELVAAITYSTGSTYYADSVKGRFTISRDNAKNTVYLQMNSLKPEDTAVYYCAAVYKRTYLHSQTYGYYYWGQGTQVTVSS
high polyreactivity
17. QVQLVESGGGIVQAGGSLRLSCTASGFTFTYYAMGSYRQAPGKERELVAAISWSGGSTYYADSVKGRFTISRDNAKNTVYLQMNSLKPEDTAVYYCNKVGRAIGPYDYWGQGTQVTVSS
high polyreactivity
18. QVHLVESGGRLVQAGGSLRLSCAASGSTFGYYAMVWYRHAPGKDRELVAAITSGASTYYADSVKGRFTISRDNAKKTVYLQMNSLKPEDTAVYYCAARRWRKYYSGYNYWGQGTQVTVSA
high polyreactivity
19. QVQLVESGGGLVQAGGSLRLSCSASGSIIGHNAMGWYRQAPGKEREIVAAITWRGSNTYYADSVKGRFTISRDNAKNTVYLQMNSLKPEDTAVYYCAAEFYYRTQWYYYWGQGTQVTVSS
high polyreactivity
20. QVQLVESGGGLVQAGGSLRLSCAASGSTFFGYTMGWYRQAPGKERELVAAITASDGSTYYADSVKGRFTISRDNAKNTVYLQMNSLKPEDTAVYYCNADYRLVRSFRLSSYTYIYDYWGQGTQVTVSS
low polyreactivity
21. QVQLVESGGGLVQAGGSLRLSCAASGRTLFGYAMGWYRQAPGKERELVAAITYGATSTYADSVKGRFTISRDNAKNTVYLQMNSLKPEDTAVYYCNAYTPTDGFDYWGQGTQVTVSS
low polyreactivity
